test-system: T1, hamster BiP (27-654, with a His6-tag) AMPylated in vitro to completion on Thr518 (Chinese hamster (Cricetulus griseus), UniProt G3I8R9 27-654, AMPylated threonine at 518 (single AMP))
T1 construct: BiP (GRP78), Chinese hamster (Cricetulus griseus), residues 27-654; numbers count on the precursor with its signal peptide (mature BiP is 19-654); also called BiP-AMP; AMPylated BiP; source: E. coli M15, purified (Ni-NTA); not shown: His6, N-terminal, kept
T1 sequence (G3I8R9 27-654): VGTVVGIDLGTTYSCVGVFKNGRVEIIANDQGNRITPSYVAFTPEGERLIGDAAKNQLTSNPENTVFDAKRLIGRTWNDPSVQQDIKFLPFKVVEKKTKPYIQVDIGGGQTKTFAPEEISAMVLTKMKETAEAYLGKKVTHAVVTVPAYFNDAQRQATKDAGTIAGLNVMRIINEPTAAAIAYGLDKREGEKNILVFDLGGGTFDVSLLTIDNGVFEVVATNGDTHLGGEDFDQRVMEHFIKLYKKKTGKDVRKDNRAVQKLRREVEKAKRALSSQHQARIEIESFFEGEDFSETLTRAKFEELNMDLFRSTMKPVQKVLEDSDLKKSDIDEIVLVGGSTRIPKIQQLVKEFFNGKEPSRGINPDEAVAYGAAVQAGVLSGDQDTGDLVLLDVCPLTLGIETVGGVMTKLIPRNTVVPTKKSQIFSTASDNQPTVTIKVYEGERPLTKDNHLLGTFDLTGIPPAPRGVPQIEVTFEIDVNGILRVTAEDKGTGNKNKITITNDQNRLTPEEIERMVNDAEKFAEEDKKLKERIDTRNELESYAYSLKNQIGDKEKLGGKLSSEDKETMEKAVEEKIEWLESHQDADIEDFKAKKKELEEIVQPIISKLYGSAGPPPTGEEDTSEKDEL
test-summary: fluorescence polarisation; steady state: 1 µM lucifer yellow-labeled peptide with BiP or BiP-AMP at 0-40 µM, 1 mM ADP, 24 hr at 30°C, FP buffer (37.5 mM HEPES-KOH pH 7.4, 125 mM KCl, 7 mM MgCl2, 0.5 mM CaCl2, 125 mM imidazole, 0.05% Triton X-100); read at room temperature
setup-conditions: both partners purified
Where no end group is shown, it is not given here.
test-readout: pKd
Notebook: values listed as pKd are -log10 of the concentration (mol/L).

Query: pKd; subject: HTFPAVLGSC (also: lucifer yellow label, position not given here, well-characterized BiP substrate peptide; also called LY-labeled substrate peptide; fluorescently-labeled substrate peptide) [lucifer yellow-labeled BiP substrate peptide (HTFPAVLGSC)]
4.94
